The following compounds are shown together with reported pIC50 values.
tested on: MCF7; test: Antiproliferative activity against human MCF7 cells after 24 hrs by SRB assay; assay type: functional, cell-based; settings: MCF7, 24 h
pIC50: −log10 of the molar value.

| compound | limit_qualifier | pIC50 |
| --- | --- | --- |
| COc1ccc(/C=C\c2cc(OC)c(OC)c(OC)c2)cc1O [COMBRETASTATIN A4] | = | 7.49 |
| COc1ccc(C(=O)/C=C/c2cc(OC)c(OC)c(OC)c2)cc1O | < | 5.60 |
| COc1ccc(/C=C/C(=O)c2cc(OC)c(OC)c(OC)c2)cc1O | = | 6.96 |
| COc1ccc(C(=O)/C=C/c2cc(OC)c(OC)c(OC)c2)cc1B(O)O | < | 5.60 |
| COc1ccc(/C=C/C(=O)c2cc(OC)c(OC)c(OC)c2)cc1B(O)O | = | 6.05 |
